Reported EC50 is given for each of the following compounds.
System: hSTING-AQ (Homo sapiens, UniProt Q86WV6, G230A/R293Q)
Sequence (Q86WV6 whole entry G230A/H232R/R293Q): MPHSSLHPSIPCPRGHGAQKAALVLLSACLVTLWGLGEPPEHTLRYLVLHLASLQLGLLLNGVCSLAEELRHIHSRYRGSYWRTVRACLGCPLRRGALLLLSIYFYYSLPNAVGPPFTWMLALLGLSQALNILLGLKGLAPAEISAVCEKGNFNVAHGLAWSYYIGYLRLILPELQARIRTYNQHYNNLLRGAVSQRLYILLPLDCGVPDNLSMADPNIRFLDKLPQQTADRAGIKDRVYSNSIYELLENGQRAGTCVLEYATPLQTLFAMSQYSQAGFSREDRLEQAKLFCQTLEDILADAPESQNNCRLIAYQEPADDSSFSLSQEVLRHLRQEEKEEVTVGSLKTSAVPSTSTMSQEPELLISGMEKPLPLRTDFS
Assay Remarks: Cellular Functional Assay I: ISRE-SEAP reporter, hSTING-AQ allele
Where a name gives a salt, the structure may show the parent alone.

Record excerpt, results attached:
CCn1nc(C)cc1C(=O)Nc1nc2cc(C(N)=O)cnc2n1C/C=C/Cn1c(NC(=O)c2cc(C)nn2CC)nc2cc(C(N)=O)cc(OCCCNCCOC(F)F)c21 | 1 to 500 nM
CCn1nc(C)cc1C(=O)Nc1nc2cc(C(N)=O)cnc2n1C/C=C/Cn1c(NC(=O)c2cc(C)nn2CC)nc2cc(C(N)=O)cc(OCCCO)c21 | 1 to 500 nM
CCn1nc(C)cc1C(=O)Nc1nc2cc(C(N)=O)cnc2n1C/C=C/Cn1c(NC(=O)c2cc(C)nn2CC)nc2cc(C(N)=O)cc(OCCCN3CCC[C@H]3COC(F)F)c21 | 1 to 500 nM
CCn1nc(C)cc1C(=O)Nc1nc2cc(C(N)=O)cc(C)c2n1C/C=C/Cn1c(NC(=O)c2cnc(C)s2)nc2cc(C(N)=O)cnc21 [Compound C, Hydrochloride] | 1 to 500 nM
CCn1nc(C)cc1C(=O)Nc1nc2cc(C(N)=O)sc2n1C/C=C/CNC(=O)OC(C)(C)C | > 500 nM

// next entry
Dear colleague, I am looking for the recorded EC50 of the following compound: CCn1nc(C)cc1C(=O)Nc1nc2cc(C(N)=O)cnc2n1C/C=C/Cn1c(NC(=O)c2cc(C)nn2CC)nc2cc(C(N)=O)cc(OCCCNC)c21
1 to 500 nM
